Target System: rat VAP-1 enzyme (SSAO) (Rattus norvegicus (Rat), UniProt O08590)
Sequence (O08590 whole entry): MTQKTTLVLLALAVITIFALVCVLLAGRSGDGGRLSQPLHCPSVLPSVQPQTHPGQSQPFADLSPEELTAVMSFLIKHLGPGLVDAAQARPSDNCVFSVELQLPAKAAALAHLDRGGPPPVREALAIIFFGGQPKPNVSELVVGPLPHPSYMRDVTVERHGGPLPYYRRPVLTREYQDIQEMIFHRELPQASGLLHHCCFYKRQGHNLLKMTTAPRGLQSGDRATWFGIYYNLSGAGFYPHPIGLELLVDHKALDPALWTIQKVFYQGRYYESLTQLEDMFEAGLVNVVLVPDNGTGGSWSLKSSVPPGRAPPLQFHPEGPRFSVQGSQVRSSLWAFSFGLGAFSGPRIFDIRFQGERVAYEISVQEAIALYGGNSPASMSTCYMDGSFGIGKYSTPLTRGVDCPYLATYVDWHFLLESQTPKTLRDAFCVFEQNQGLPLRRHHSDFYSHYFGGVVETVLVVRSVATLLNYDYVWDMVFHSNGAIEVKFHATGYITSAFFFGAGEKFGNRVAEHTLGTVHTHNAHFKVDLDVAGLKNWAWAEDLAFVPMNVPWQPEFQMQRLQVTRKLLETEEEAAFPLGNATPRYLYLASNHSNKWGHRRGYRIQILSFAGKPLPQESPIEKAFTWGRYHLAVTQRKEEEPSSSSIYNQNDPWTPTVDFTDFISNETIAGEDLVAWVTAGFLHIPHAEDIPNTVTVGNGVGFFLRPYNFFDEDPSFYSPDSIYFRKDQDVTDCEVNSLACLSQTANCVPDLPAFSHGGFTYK
Test Summary: Inhibitory effect on rat VAP-1 enzyme (SSAO), radiochemical-enzyme assay using 14C-benzylamine
Type: biochemical
Test Parameters: rat VAP-1 expressed in a cell, cell extract; 14C-benzylamine 1×10^−5 mol/L; 37° C., 2 hours
Where a name gives a salt, the structure may show the parent alone.
Collected IC50 values appear next to each entry.
Quantity Kind: IC50 (nM)

1) NNC(=O)Cc1ccc(CCc2cccc(N3CCNCC3)n2)cc1 ... 29.4
2) CC(=O)N1CCN(c2cnc(CCc3ccc(CC(=O)NN)cc3)cn2)CC1 [Production Example 101, trihydrochloride] ... 2.1
3) NNC(=O)Cc1ccc(CCc2csc(C3CCNCC3)n2)cc1 [Production Example 20, dihydrochloride] ... 5.1
4) CCN(CC)c1ccc(CCc2ccc(CC(=O)NN)cc2)nc1 [Production Example 88, trihydrochloride] ... 0.9
5) CC(=O)N1CCN(c2ccc(CCc3ccc(CC(=O)NN)cc3)cn2)CC1 [Production Example 47, trihydrochloride] ... 3.6

* * *

Target System: UniProt Q16853
Sequence (Q16853 whole entry): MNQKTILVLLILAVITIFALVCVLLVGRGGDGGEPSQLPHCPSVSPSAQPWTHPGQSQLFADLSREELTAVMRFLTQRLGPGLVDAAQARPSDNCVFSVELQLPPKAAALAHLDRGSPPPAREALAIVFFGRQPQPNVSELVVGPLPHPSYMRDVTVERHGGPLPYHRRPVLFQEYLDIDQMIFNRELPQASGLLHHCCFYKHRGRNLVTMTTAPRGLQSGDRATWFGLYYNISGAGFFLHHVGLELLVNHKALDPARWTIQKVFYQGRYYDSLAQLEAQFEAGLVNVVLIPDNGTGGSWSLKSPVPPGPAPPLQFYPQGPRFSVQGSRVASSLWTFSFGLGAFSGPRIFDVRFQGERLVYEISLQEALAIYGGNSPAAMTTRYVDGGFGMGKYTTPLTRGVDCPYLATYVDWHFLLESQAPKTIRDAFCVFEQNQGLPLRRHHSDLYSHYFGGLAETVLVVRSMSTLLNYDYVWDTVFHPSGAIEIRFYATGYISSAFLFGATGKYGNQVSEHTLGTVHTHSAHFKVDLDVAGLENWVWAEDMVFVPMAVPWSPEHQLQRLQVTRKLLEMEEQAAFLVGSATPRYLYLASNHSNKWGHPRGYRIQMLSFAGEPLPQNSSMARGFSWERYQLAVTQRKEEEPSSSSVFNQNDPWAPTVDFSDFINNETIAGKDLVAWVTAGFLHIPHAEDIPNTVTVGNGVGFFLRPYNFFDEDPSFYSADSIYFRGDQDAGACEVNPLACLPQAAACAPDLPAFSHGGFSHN
Test Summary: Inhibitory effect on human VAP-1 enzyme (SSAO), radiochemical-enzyme assay using 14C-benzylamine
Type: biochemical
Test Parameters: human VAP-1 expressed in a cell, cell extract; 14C-benzylamine 1×10^−5 mol/L; 37° C., 2 hours
pIC50: −log10 of the molar value. Counter-ions that a name gives are not always drawn.
Collected pIC50 values appear next to each entry.
Quantity Kind: pIC50

1) CCN(CC)c1ccc(CCc2ccc(CC(=O)NN)cc2)nc1 [Production Example 88, trihydrochloride] ... 7.99
2) CCN(CCN)c1ccc(CCc2ccc(CC(=O)NN)cc2)cc1 [Production Example 83, trihydrochloride] ... 7.69
3) NNC(=O)Cc1ccc(CCc2ccc(N3CCOCC3)nc2)cc1 [Production Example 12, dihydrochloride] ... 7.68
4) CC(=O)N1CCN(c2ccc(CCc3ccc(OC(=O)NN)cc3)nc2)CC1 [Production Example 110, trihydrochloride] ... 8.46
5) CC(=O)N1CCN(c2ccc(CCc3ccc(CC(=O)NN)cc3)nn2)CC1 [Production Example 99, trihydrochloride] ... 7.87
6) CC(=O)N1CCN(c2ccc(CCc3csc(CCCOC(=O)NN)c3)nc2)CC1 ... 8.33
7) NNC(=O)Cc1ccc(CCc2ccnc(N3CCNCC3)c2)cc1 ... 8.14

Just for reference, patent US9603833B2 is where these values come from.
